Listed below: koff values for each entry.
Target: T1, cynomolgus Trop-2-His protein (cynomolgus, UniProt P09758 27-274 (human entry))
T1 construct: also called cynmolgus Trop-His; Kactus Cat #TRP-CM121; not shown: His tag
T1 chain: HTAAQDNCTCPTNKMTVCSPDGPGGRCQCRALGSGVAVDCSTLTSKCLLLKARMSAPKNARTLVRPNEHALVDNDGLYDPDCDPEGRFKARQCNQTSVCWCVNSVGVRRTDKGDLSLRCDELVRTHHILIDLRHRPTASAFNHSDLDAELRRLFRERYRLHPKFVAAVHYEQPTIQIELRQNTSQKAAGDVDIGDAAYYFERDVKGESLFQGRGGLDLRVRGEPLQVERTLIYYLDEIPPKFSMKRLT
Test: BLI (Gator Prime), LEM supernatant Ab on HFC probe
Provide the reading as a plain figure in s⁻¹.

Illustrative cases are given below, each with its answer.
{"columns": ["BINDER", "RESULT_NUMBER"],
 "data": [
  ["2H5 (antibody, V domains shown, Rabbit-derived clone; LEM construct: VH + rabbit IgG CH1 + human IgG1 CH2-CH3) VH: QSLEESGGDLVQPGASLTLTCKASGFDLNNYSILWVRQAPGKGLEWIGCIYFSGGSTYYANWAKGRFAISKTSSTTVTLQMTSLTAADTATYFCARDDGTTSYYLNLWGPGTLVTVSS VL: YDMTQTPASVSEPVGGTVTIKCQASEDIYNLLAWYQQKPGQPPKLLIYAASDLESGVPSRFKGSGSGTEYTLTISDLECADAATYYCQQAYTVGNIDNAFGGGTEVVVK", 0.00027],
  ["10E12 (antibody, V domains shown, Rabbit-derived clone; LEM construct: VH + rabbit IgG CH1 + human IgG1 CH2-CH3) VH: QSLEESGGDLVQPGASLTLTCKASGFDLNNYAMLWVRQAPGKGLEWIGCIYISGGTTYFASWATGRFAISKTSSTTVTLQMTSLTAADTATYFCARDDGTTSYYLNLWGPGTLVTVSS VL: YDMTQTPASVSAAVGGTVTIKCQASEDIYSLLAWYQQKPGQPPKLLIYDASDLASGVPSRFKGSGSGTEYTLTISDLECDDAATYYCQQAYTIGNIDNAFGGGTEVVVK", "6.8e-05"],
  ["3A4 (antibody, V domains shown, Rabbit-derived clone; LEM construct: VH + rabbit IgG CH1 + human IgG1 CH2-CH3) VH: QEQLVESGGGLVQPGGSLTLSCKGSGFDFNEYGVSWVRQAPGKGLEWIAYIYPAFHNTYYATWVNGRFTISSHNAQNTLYLQLHTLTAADTATYFCARDAGTTDYNFNLWGPGTLVTVSS VL: DVVMTQTPASVSAAVGGTVSINCQASEDIENYLAWYQQKPGQPPKLLIYEASKLASGVSSRFSGSGYGTEFTLTISGVECADAATYYCQQALTIGNVDNPFGGGSEVVVK", 0.00069]
]}

Turning now to a further binder:
# input Fill blank: measured koff of the binder 10D3 (antibody, V domains shown, Rabbit-derived clone; LEM construct: VH + rabbit IgG CH1 + human IgG1 CH2-CH3) VH: QSLEESGGDLVQPGASLTLTCKAAGFDLNNYSMLWVRQAPGKGLEWIGCIYISGGTTYYASWAKGRFTISKTSSTTVTLQMTSLTAADTATYFCARDDGSTSYYLNLWGPGTLVTVSS VL: YDMTQTPASVSEPVGGTVTIKCQASEDIYRLLAWYQQKPGQPPKLLIYDASDLASGVPSRFKGSGSGTEYTLTISGLQCADAATYYCQQGYTIGNIDNSFGGGTEVVVK is ____.
# output 0.00019
